- Experiment: in vivo
- Condition summary: rat, po
Where a name gives a salt, the structure may show the parent alone.
Quantity measured: LD50

Documented LD50 of Cc1cc(O)c2nncn2n1 [ammonium salt] : ~3750 mg/kg
